Assay: soluble on expression in E. coli; label from the status in PepcDB or PDB records
OUTCOME MEASURE: soluble on expression in E. coli

Recorded results for 4 sequences are shown here.
MHLPQMGYDRAITVFSPDGRLFQVEYAREAVKRGATAIGIKCKEGVILIADKRVGSKLLEKDTIEKIYKIDEHICAATSGLVADARVLIDRARIEAQINRLTYDIPITVKELAKKICDFKQQYTQYGGVRPFGVSLLIAGVNEVPKLYETDPSGALLEYKATAIGMGRMAVTEFFEKEYRDDLSFDDAMVLGLVAMGLSIESELVPENIEVGYVKVDDRTFKEVSPEELKPYVERANERIRELLKK ... soluble
MSLSKNKLKTPHCMLNLTFNWLSFCEMRGTRDTVEDMFVCKANPVDNQACMAIFDGHGGSKTSYYACGVFIKLYTSAKMIFSKQWLRGTMRGISESVKTKLFPDGSTAAVAMFKDRKLITSTIGDSRIIVMTEDGKLKYENRVHKPTQREEFERVHEAGGSVYGFRLQNSLALSRTMGDIAVPGISAESEEDEVNLDEEDRWVIVGCDGVFDELPMSFVGELCKKAKSAIGLSHSLRTAAFAARSQDNITVVALDVKTLYSKVELASDMNSTMREGHHHHHH ... not soluble
TPDIQMTQSPSSLSASVGDRVTITVQASQDIIKHLNWYQQTPGKAPKLLIYEASNLQAGVPSRFSGSGSGTDYTFTISSLQPEDIATYYCQQYQSLPYTFGQGTKLQIT ... soluble
MFGFLRKSQPVPQPQEATSDTIATQHTSAPLSNDMMLLMAEEIPMLDSNSRVRVYEILEQYDGPTICSQEELPREIREMMDL ... not soluble

Field soluble on expression in E. coli (entry MSLAILIKNRIGKGYPIYTSTVLNEKLSDEGNLTFDILENENTYDLISAVSKMWTVHNVAGPDDKRVFVITIIDRQSRGEKQYVSITARQKEIDDLMTQRIYSNVTGSFTVENYFKIVFQGSGYKYKIPIKVPSSRWENAGDGDSRYEMFKNGLERYDLEYTYDPSNKTFTLEPFVEKKTSYYISSKVNANNLKLEEDASECYTYIRGYGGFEEDESFMQGSVQVEFTHPLAKVIGKREAPPKIDGRITNIETMKREIEAIIAQSLKTSLSLDFVALREVFPSAVPRIGDLVPVRDDIIDINDSVRIIEIKTTRDAHNKIIKQDVVLGDIRRRDRYTKSVNNAATLASGLGGGSEGHHHHHH ) reads soluble

Field soluble on expression in E. coli (entry MNSNRTPSQKVLARQEKIKAVALELFLTKGYQETSLSDIIKLSGGSYSNIYDGFKSKEGLFFEILDDICKKHFHLIYSKTQEIKNGTLKEILTSFGLAFIEIFNQPEAVAFGKIIYSQVYDKDRHLANWIENNQQNFSYNILMGFFKQQNNSYMKKNAEKLAVLFCTMLKEPYHHLNVLINAPLKNKKEQKEHVEFVVNVFLNGINSSKA ) reads soluble

Field soluble on expression in E. coli (entry MISDIRKDAEVRMDKCVEAFKTQISKIRTGRASPSLLDGIVVEYYGTPTPLRQLASVTVEDSRTLKINVFDRSMSPAVEKAIMASDLGLNPNSAGSDIRVPLPPLTEERRKDLTKIVRGEAEQARVAVRNVRRDANDKVKALLKDKEISEDDDRRSQDDVQKLTDAAIKKIEAALADKEAELMQF ) reads soluble

Field soluble on expression in E. coli (entry SLCDKIFHNLSGKTLVATPYVITKGIYHKSLIYMLSHTEEGAIGLIFNRLVNHVDLKSFFKIKEDKITSQVIVPIYLGGPIEHEKGFFLHSRDYNKNLLLDFHNDLAVSSNLEISEDIAFGQGPKNSLFIVGYTAWKPGQLEEELEKNLWLVMDCNKEFIFADNPENKWHNALKHLGIDEMYFSSQIGNA ) reads soluble

Field soluble on expression in E. coli (entry MGSDKIHHHHHHMLLDHIFICVDENAPEADELVFLGLAEGTPNRHRGQGTANRRFFLPGVMLELLWVADLNELQSVTTRTLGLADRFAARKDGGSPFGFVFKPKNPRIGNSCPFPFRSYHPAYLPETLDMKVADATPRIEPLYVFIDFLPASCSTAQHHPCGIERLTSVHVTFPAQGAPSPVARMIDSLPGMSARVGREHLLELCFDDGKRGVRHDFRNRLPLIIRW ) reads not soluble

Field soluble on expression in E. coli (entry MKRIGYARTTIIEDDLKNQLTTLQSFGCDDIFQETFDPQAEISVLDEVEKLLSAGDTLIVCKLHHLGKTTRQLTDFMKMLKEKQVDFVSISEGIDTHLPTGEAYFQLMESLSAMECALIKERTLVGLHKARENGKVGGRPKIDGRTVRKIRALYYENKETIQFISNKCGVSVGTCYKYINLPETDVERLYS ) reads not soluble
